B1: C10orf62 (parent)
chain: GHSHHSHHGHPSHQSHSLPNRRH

variants of: B1; assay: protein stability index of a GFP-peptide fusion (GPS, HEK-293T) (PSI 1-6); higher = more stable; conditions: c terminus: native;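 further: lentivirally expressed fusions sorted by FACS into six bins by GFP to DsRed ratio, PSI derived from sequencing read proportions per bin multiplied by bin number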
Kind request: treat 3 as inclusive, so protein stability index at 3 or higher is yes (1), anything lower is no (0).

{"columns": ["MUTANT_DESIGNATION", "CAT"],
 "data": [
  ["G1Q", "yes (1)"],
  ["H2R", "yes (1)"],
  ["G9D", "no (0)"],
  ["P19L", "no (0)"],
  ["L18H", "yes (1)"],
  ["P19H", "no (0)"],
  ["H16T", "no (0)"],
  ["S6H", "yes (1)"],
  ["N20Y", "no (0)"],
  ["H13M", "yes (1)"],
  ["G1M", "no (0)"],
  ["S3C", "yes (1)"],
  ["G9E", "yes (1)"],
  ["H16F", "yes (1)"],
  ["S6M", "yes (1)"],
  ["S12L", "no (0)"],
  ["R21W", "no (0)"],
  ["S6Y", "yes (1)"],
  ["R22S", "yes (1)"],
  ["H8P", "no (0)"],
  ["H13F", "yes (1)"],
  ["H13K", "no (0)"],
  ["P19T", "yes (1)"],
  ["H5N", "no (0)"],
  ["H4I", "no (0)"]
]}
